pIC50: −log10 of the molar value.
Target or system Cytochrome P450 2C9 (Homo sapiens, UniProt P11712): recorded pIC50 listed per item.

>>> value("Nc1oncc1-c1ccccc1")
"< 5.00"

Kindly review the next compound as well.
Assay Cytochrome P450 2C9 (Homo sapiens, UniProt P11712), sample Nc1oncc1-n1cccn1 , pIC50 read: < 5.00

###

- TESTED ON: Tryptophan 2,3-dioxygenase (Homo sapiens, UniProt P48775)
- Sequence (P48775 whole entry): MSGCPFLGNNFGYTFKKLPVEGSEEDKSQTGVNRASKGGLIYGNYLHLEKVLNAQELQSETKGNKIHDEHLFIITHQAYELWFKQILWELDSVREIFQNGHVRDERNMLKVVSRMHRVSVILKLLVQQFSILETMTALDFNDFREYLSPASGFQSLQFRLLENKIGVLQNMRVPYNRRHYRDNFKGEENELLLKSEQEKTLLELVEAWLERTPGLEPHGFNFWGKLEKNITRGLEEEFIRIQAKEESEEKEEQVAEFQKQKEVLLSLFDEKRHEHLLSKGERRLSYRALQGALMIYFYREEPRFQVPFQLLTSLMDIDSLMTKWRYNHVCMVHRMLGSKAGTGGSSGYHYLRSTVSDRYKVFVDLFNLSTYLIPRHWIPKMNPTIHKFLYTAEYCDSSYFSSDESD
- MEASUREMENT PROTOCOL: Inhibition of recombinant human TDO2 assessed as decrease in conversion of L-tryptophan to N-formylkynurenine preincubated for 5 mins followed by 0.2 mM substrate addition measured after 15 mins by RapidFire mass spectrometry based fluorescence assay
pIC50: −log10 of the molar value.
OBSERVABLE: pIC50

>>> value("Nc1oncc1-n1cc(F)cn1")
6.47

1: OCc1oncc1-c1ccccc1
2: Cc1cnn(-c2cnoc2N)c1
Incoming: Lab log: flag the item ( 1 or 2 ) with the smaller pIC50 figure. Kindly give the label for the entry you pick.
Outgoing: 1
